# System: S. pyogenes JCM5674(ATCC12344)
Observable: MIC (µg/mL)
State the answer as a number, implicitly in µg/mL.

Please review the following examples before continuing.
INSERT INTO assay_data (compound, observable, data_value) VALUES
  ('COc1c(N2CC3=CCCC3(N)C2)c(F)cc2c(=O)c(C(=O)O)cn([C@@H]3C[C@@H]3F)c12 (single isomer, unassigned) [Example 25]', 'MIC', 0.05),
  ('COc1c(N2C[C@H]3C4(CC4)C[C@@]3(N)C2)c(F)cc2c(=O)c(C(=O)O)cn([C@@H]3C[C@@H]3F)c12 [Example 10]', 'MIC', 0.025),
  ('COc1c(N2C[C@H]3CC=C[C@@]3(N)C2)c(F)cc2c(=O)c(C(=O)O)cn([C@@H]3C[C@@H]3F)c12 [Example 24]', 'MIC', 0.1);

Pending compound:
Asked: Notebook: pull reported MIC for S. pyogenes JCM5674(ATCC12344), entry O=C(O)c1cn(C2CC2)c2cc(N3CCNCC3)c(F)cc2c1=O [CPFX, ciprofloxacin, reference compound]
Given back: 0.39
